- test_target: HA1 adenosine receptor (Homo sapiens)
- Sequence (P30542 whole entry): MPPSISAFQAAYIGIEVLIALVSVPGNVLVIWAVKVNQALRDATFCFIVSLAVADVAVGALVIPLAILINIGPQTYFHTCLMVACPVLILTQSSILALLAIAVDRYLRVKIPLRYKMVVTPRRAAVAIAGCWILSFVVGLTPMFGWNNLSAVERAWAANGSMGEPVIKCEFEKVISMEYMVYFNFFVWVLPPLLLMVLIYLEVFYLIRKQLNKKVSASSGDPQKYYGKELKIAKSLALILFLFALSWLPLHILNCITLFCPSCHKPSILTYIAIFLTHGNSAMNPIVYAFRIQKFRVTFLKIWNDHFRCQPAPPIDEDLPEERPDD
- assay: Human adenosine A1 receptor affinity (Ki hA1)
- Assay type: binding
- assay_context: affinity to human adenosine A1 receptor
Measured Ki by item
measurement_type: Ki

# compound, measurement_type, test_value
measured = [
    ("C[C@@H]1CC[C@@H](C)N1C(=O)c1cc(N)n2nc(-c3ccc(Br)o3)nc2c1", "Ki", "0.934 µM"),
    ("CC1CCCCN1C(=O)c1cc(N)n2nc(-c3ccc(Br)o3)nc2c1 (stereo not shown)", "Ki", "0.0657 µM"),
    ("CC(C)N(C(=O)c1cc(N)n2nc(-c3nccs3)nc2c1)C(C)C", "Ki", "3.32 µM"),
    ("Nc1cc(C(=O)NCc2ccccc2Cl)cc2nc(-c3ccoc3)nn12", "Ki", "0.228 µM"),
    ("CCN(CC)C(=O)c1cc(N)n2nc(-c3cc(Br)co3)nc2c1", "Ki", "0.407 µM"),
    ("CN(C(=O)c1cc(N)n2nc(-c3ccccc3)nc2c1)C1CCCCC1", "Ki", "1.2 µM"),
    ("Nc1cc(C(=O)N2CCOCC2)cc2nc(-c3ccc(Br)o3)nn12", "Ki", "0.767 µM"),
    ("CCCN(C)C(=O)c1cc(N)n2nc(-c3ccc(Cl)o3)nc2c1", "Ki", "0.438 µM"),
    ("Nc1cc(C(=O)N2CCCC2)cc2nc(-c3ccccc3)nn12", "Ki", "0.711 µM"),
    ("Nc1cc(C(=O)NC2CCCCC2)cc2nc(-c3ccccn3)nn12", "Ki", "0.366 µM"),
    ("COc1ccc(-c2nc3cc(C(=O)N4CCCCC4)cc(N)n3n2)s1", "Ki", "0.623 µM"),
    ("CCN(C(=O)c1cc(N)n2nc(-c3ccc(Cl)o3)nc2c1)C(C)C", "Ki", "0.0925 µM"),
    ("CN(C)C(=O)c1cc(N)n2nc(-c3ccc(Cl)o3)nc2c1", "Ki", "0.601 µM"),
    ("Nc1cc(C(=O)NCc2ccccc2Br)cc2nc(-c3cccs3)nn12", "Ki", "0.111 µM"),
    ("Nc1cc(C(=O)NCc2ccc(F)cc2)cc2nc(-c3nccs3)nn12", "Ki", "0.657 µM"),
    ("COc1ccc(-c2nc3cc(C(=O)N(Cc4ccccc4)C(C)C)cc(N)n3n2)s1", "Ki", "0.0764 µM"),
    ("CC1CCCC(C)N1C(=O)c1cc(N)n2nc(-c3ccc(Br)o3)nc2c1 (stereo not shown)", "Ki", "1.3 µM"),
    ("Nc1cc(C(=O)NCc2ccc(F)cc2)cc2nc(-c3ccccn3)nn12", "Ki", "0.203 µM"),
    ("Nc1cc(C(=O)N2CCCC3CCCCC32)cc2nc(-c3ccc(Br)o3)nn12 (stereo not shown)", "Ki", "0.0647 µM"),
    ("CCN(C(=O)c1cc(N)n2nc(-c3ccc(OC)s3)nc2c1)C(C)C", "Ki", "0.211 µM"),
    ("Nc1cc(C(=O)N2CCCCC2c2cccnc2)cc2nc(-c3ccc(Br)o3)nn12 (stereo not shown)", "Ki", "0.0455 µM"),
    ("Nc1cc(C(=O)N2CC=CCC2)cc2nc(-c3ccc(Br)o3)nn12", "Ki", "0.143 µM"),
]
